Tested on: IL-5 production
Assay: In vitro inhibition of IL-5 production in human blood (phytohemagglutinin-stimulated whole blood, ELISA);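 also: values marked with an asterisk were tested at 10 µM and unmarked values at 1 µM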
Format: cell-based
Conditions: test dose 1×10^−6 M, 48 hours
Experimental: In Vitro Inhibition of IL-5 Production in Human Blood Human Whole Blood Stimulation Peripheral blood from healthy male donors was drawn into heparinized syringes (12.5 U heparin/ml). Blood samples were three-fold diluted in RMPI 1640 medium (Life Technologies, Belgium) supplemented with 2 mM L-glutamine, 100 U/ml penicillin and 100 μg/ml streptomycin, and 300 μl fractions were distributed in 24-well multidisc plates. […]
# % inh. (percentage inhibition of IL-5 production) annotations
quantity_measured: % inh. (percentage inhibition of IL-5 production) (%)

[
  {
    "molecule": "N#CCc1nnc(C(c2ccc(Cl)cc2)c2c(Cl)cc(-n3ncc(=O)[nH]c3=O)cc2Cl)o1 (racemic)",
    "measured_value": 21
  },
  {
    "molecule": "O=C(c1ccccc1)c1sc(C(c2ccc(Cl)cc2)c2c(Cl)cc(-n3ncc(=O)[nH]c3=O)cc2Cl)nc1-c1ccccc1 (racemic)",
    "measured_value": 77
  },
  {
    "molecule": "O=c1cnn(-c2cc(Cl)c(C(c3ccc(Cl)cc3)c3nnc(-c4ccccn4)o3)c(Cl)c2)c(=O)[nH]1 (racemic)",
    "measured_value": 81
  }
]
